Answer each item with its documented Odour reduction value.
ASSAY_OVERVIEW: Raw material test against sweat odour (masking of malodour standard, assessor panel)
CONDITION_NOTES: Table 1; 1 μl fragrance + 5 μl 3-mercapto-3-methyl-hexan-1-ol (0.1% in DPG) in 7 l air, 15 h at approx. 20° C.; scale 1 to 9, malodour standard mixture = 6; mean of at least 8 assessors
// response body must contain only the number

Exercise: Reported Odour reduction value for C=CC(C)(O)CCC=C(C)CC (centres unmarked) : what is it?
Solution: 3.1

Exercise: I would be grateful if you could share the reported Odour reduction value for C=CCOC(=O)CCCCC [ALLYL CAPRONATE] .
Solution: 3.0

Exercise: Using the record for COC(=O)c1c(C)cc(O)c(C)c1O , report its Odour reduction value.
Solution: 3.8

Exercise: Can you look up the measured Odour reduction value of CC(C)=CCC(C)(C)C1OCC=CCO1 for me?
Solution: 3.7

Exercise: Endpoint output: Odour reduction value of CCCC1CCOC(C)S1 (centres unmarked) [(Z)-2-METHYL-4-PROPYL-1,3-OXATHIANE] . Value?
Solution: 3.1

Exercise: # get_value(readout='Odour reduction value', item= Cc1cccc(CC(C)(C)CO)c1 )
Solution: 4.4

Exercise: Dear colleague, I am looking for the recorded Odour reduction value of the following molecule: C=CCOC(=O)COC1CCCCC1
Solution: 4.3

Exercise: Consider the molecule CC(=O)c1cc2ccccc2o1 [2-ACETYLBENZOFURAN] and give its measured Odour reduction value.
Solution: 3.3

Exercise: Any idea what Odour reduction value was measured for CC(C)=CCC(C)(C)C(=O)C(C)C ?
Solution: 3.3

Exercise: What measured Odour reduction value goes with CCCCCCCCCC/C=C\C#N [(Z)-2-TRIDECENE NITRILE] ?
Solution: 3.8

Exercise: Reported Odour reduction value for CC(=O)O[C@H]1CC[C@H](C(C)(C)C)CC1 : what is it?
Solution: 5.1

Exercise: # query: Odour reduction value of entry O=Cc1ccc2c(c1)OCO2 [3,4-METHYLENDIOXYBENZALDEHYDE]
Solution: 3.7

Exercise: Looking for the measured Odour reduction value of CC(CC#N)CCc1ccccc1 (centres unmarked) [2-METHYL-4-PHENYL BUTYL CYANIDE] , can you help?
Solution: 5.3

Exercise: Requested read-out: Odour reduction value. Entry: CC(=CCC1CCC=C(C)C1(C)C)CO (centres unmarked)
Solution: 3.0

Exercise: Need Odour reduction value of CC(=O)C1(C)CC2=C(CCCC2(C)C)CC1C (centres unmarked) , thanks.
Solution: 3.4

Exercise: Item CC1=CCC(C(C)CC=O)CC1 (centres unmarked) has what recorded Odour reduction value?
Solution: 3.9

Exercise: Requested field: Odour reduction value. Item: O=C1CCCCCC/C=C/CCCCCCC1 [(E)-8-CYCLOHEXADECEN-1-ONE]
Solution: 4.0

Exercise: Query (molecule): CCCCCCOC(=O)c1ccccc1O [SALICYLIC ACID HEXYL ESTER] ; field requested: Odour reduction value
Solution: 3.7

Exercise: May I ask what Odour reduction value has been recorded for COc1ccc(C=O)cc1 [4-METHOXYBENZALDEHYDE] ?
Solution: 4.7

Exercise: Request the reported Odour reduction value associated with c1ccc2c(c1)CC1COCOC21 (centres unmarked) [1,4A,9,9A-TETRAHYDRO-2,4-DIOXA-FLUORENE]
Solution: 4.3

Exercise: // Odour reduction value lookup, key: CC=CC(=O)C1C(C)=CCCC1(C)C (stereo in doubt) [ALPHA-DAMASCONE]
Solution: 4.1

Exercise: Consider the molecule CC(=O)c1cc2c(cc1C)C(C)(C)C(C)CC2(C)C (centres unmarked) [6-ACETYL-1,1,2,4,4,7-[…]] and give its measured Odour reduction value.
Solution: 3.1

Exercise: Name the recorded Odour reduction value for CC/C=C/CCOC(C)=O [ACETIC ACID-3(E)-HEXENYL ESTER] .
Solution: 3.1

Exercise: If you can, please state the reported Odour reduction value value of CC(C)=CCOC(=O)c1ccccc1O [SALICYLIC ACID PRENYL ESTER] .
Solution: 3.6

Exercise: Endpoint output: Odour reduction value of CC1=C[C@H](C)[C@H](C=O)CC1 (relative stereo) . Value?
Solution: 4.4

Exercise: Would you kindly share the measured Odour reduction value for C/C(=C\C#N)CCc1ccccc1 [(E)-3-METHYL-5-PHENYL-2-PENTENE NITRILE] ?
Solution: 5.1

Exercise: Return reported Odour reduction value; argument: CC(C)[C@H]1CC[C@H](O)CC1 [TRANS-4-ISOPROPYL CYCLOHEXANOL]
Solution: 4.1

Exercise: Please give the measured Odour reduction value for this molecule: COC(=O)C1CC2(C)C=CC1(C(C)C)CC2 (centres unmarked)
Solution: 4.2

Exercise: Reported Odour reduction value for CCCCCCCCCC=O [DECANAL] : what is it?
Solution: 3.0

Exercise: # get_value(readout='Odour reduction value', item= COC(=O)c1ccc(O)c(C)c1O )
Solution: 3.0

Exercise: Entry CC(C)COC(=O)C=Cc1ccccc1 [ISOBUTYL CINNAMATE] has what Odour reduction value?
Solution: 3.1

Exercise: Would you kindly share the measured Odour reduction value for CCCCCCCCCC(C)C=O (centres unmarked) [2-METHYLUNDECANAL] ?
Solution: 3.2

Exercise: Look up Odour reduction value for this molecule: CCc1ccc(CC(C)(C)C=O)cc1
Solution: 3.7

Exercise: Reported Odour reduction value, molecule CC/C=C\CCOCCC#N [(Z)-3-(3-HEXENYLOXY)-PROPANENITRILE] : ____
Solution: 5.0

Exercise: For COC1C=C2C(C)(C)C3CCC2(C3)C(C)(C)C1 (centres unmarked) , what is its reported Odour reduction value?
Solution: 4.3

Exercise: Look at this molecule and give its reported Odour reduction value. CC(CO)CCCc1ccccc1 (centres unmarked) [2-METHYL-5-PHENYL PENTANOL]
Solution: 5.1

Exercise: Field request: Odour reduction value | item: C=CC(C)(O)CCC=C(C)C (centres unmarked) [LINALOOL]
Solution: 5.0

Exercise: # input molecule: CC(=O)OC(C)(C)C1CC=C(C)CC1 (stereo not drawn) [ACETIC ACID-ALPHA-TERPINYL ESTER] ; wanted: its Odour reduction value
Solution: 4.0

Exercise: # Odour reduction value lookup, item CCCCC1COCC(C)C1OC(C)=O (centres unmarked)
Solution: 3.0

Exercise: Would you mind telling me what Odour reduction value value was observed for C=CCCCCCCCCC=O [10-UNDECENAL] ?
Solution: 3.3

Exercise: Return reported Odour reduction value; argument: CC(=O)OCCc1ccccc1 [ACETIC ACID-2-PHENYLETHYL ESTER]
Solution: 4.0

Exercise: May I ask what Odour reduction value has been recorded for CCC(O)CC[C@H]1[C@@H](C)CCCC1(C)C (relative stereo) ?
Solution: 3.1

Exercise: Quick one: Odour reduction value for CC1COCc2cc3c(cc21)C(C)(C)C(C)C3(C)C (centres unmarked) ?
Solution: 4.3

Exercise: Returns the measured Odour reduction value for the input molecule. Input: CCCCCCCCCCCC#N [UNDECYL CYANIDE]
Solution: 3.3

Exercise: What measured Odour reduction value goes with C=CCOC(=O)CCCCCC [ALLYL HEPTYLATE] ?
Solution: 3.0

Exercise: Report Odour reduction value for CCCCCC1COCCC1OC(C)=O (centres unmarked) [TETRAHYDRO-3-PENTYL-PYRAN-4-OL ACETATE] please.
Solution: 4.5

Hello, the source for this data is patent US20070298994A1, in case you need it.
